// data source = ChEMBL document CHEMBL4033668

measurementTarget: Cytochrome P450 1B1 (Homo sapiens)
experiment: Inhibition of CYP1B1 (unknown origin) expressed in Escherichia coli DH5alpha coexpressing human NADPH-P450 reductase using 7-Ethoxyresorufin as substrate up to 6 mins in presence of NADP+ by spectrofluorometric analysis
pIC50: −log10 of the molar value.
Consider the following molecules; for each one, report its pIC50.

GET /values?readout=pIC50&system=Cytochrome P450 1B1 (Homo sapiens)&item= N#C[Se]Cc1ccccc1 [BENZYLSELENOCYANATE] 6.57 to 6.89

Notebook entry, Cytochrome P450 1B1 (Homo sapiens) assay: pIC50 of "N#C[Se]Cc1ccccc1C[Se]C#N" = ? 6.57 to 6.89

Recall the recorded pIC50 for "CC[C@H]1OC(=O)[C@H](C)[C@@H](O[C@H]2C[C@@](C)(OC)[C@@H](O)[C@H](C)O2)[C@H](C)[C@@H](O[C@@H]2O[C@H](C)C[C@H](N(C)C)[C@H]2O)[C@](C)(O)C[C@@H](C)C(=O)[C@H](C)[C@@H](O)[C@]1(C)O" with Cytochrome P450 1B1 (Homo sapiens) and state it. 4.40

Identify the measured pIC50 of CNCCC(Oc1ccc(C(F)(F)F)cc1)c1ccccc1 (stereo unspecified) for Cytochrome P450 1B1 (Homo sapiens). 3.32

Look up pIC50 with Cytochrome P450 1B1 (Homo sapiens) for this molecule: "N#C[Se]Cc1ccc(C[Se]C#N)cc1" 6.57 to 6.89

What measured pIC50 is associated with "N#C[Se]Cc1cccc(C[Se]C#N)c1" on Cytochrome P450 1B1 (Homo sapiens)? 6.57 to 6.89

###

measurementTarget: Cytochrome P450 1B1 (Homo sapiens, UniProt Q16678)
Sequence (Q16678 whole entry): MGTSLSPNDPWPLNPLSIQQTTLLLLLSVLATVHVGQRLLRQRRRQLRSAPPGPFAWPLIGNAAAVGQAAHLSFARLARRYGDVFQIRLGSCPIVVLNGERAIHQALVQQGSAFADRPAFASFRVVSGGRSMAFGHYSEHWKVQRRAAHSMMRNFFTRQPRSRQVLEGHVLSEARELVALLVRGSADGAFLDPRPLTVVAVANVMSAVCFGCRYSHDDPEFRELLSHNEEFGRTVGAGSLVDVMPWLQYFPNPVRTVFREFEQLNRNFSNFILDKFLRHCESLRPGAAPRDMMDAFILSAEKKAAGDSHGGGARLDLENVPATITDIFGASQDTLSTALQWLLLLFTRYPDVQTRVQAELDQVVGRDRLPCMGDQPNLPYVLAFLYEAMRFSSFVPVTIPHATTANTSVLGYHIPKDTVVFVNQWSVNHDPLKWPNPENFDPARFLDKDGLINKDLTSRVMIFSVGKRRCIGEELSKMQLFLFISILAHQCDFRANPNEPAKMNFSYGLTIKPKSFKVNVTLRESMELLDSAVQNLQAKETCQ
experiment: Inhibition of recombinant CYP1B1 (unknown origin) expressed in supersomes coexpressing NADPH-CYP reductase using 7-ethoxyresorufin as substrate after 15 mins in presence of NADP+ by fluorescence spectrophotometric analysis
assayMetric: Ki
Record the result as a number with its unit.

Would you kindly share the measured Ki for "Oc1ccc(/C=C/c2cc(O)cc(O)c2)cc1" ? 11200 nM

Record request: Ki value, item "COc1cccc(/C=C/c2ccc(SC)cc2)c1" 500 nM

Which Ki value is on record for "COc1ccccc1/C=C/c1ccc(SC)cc1" ? 300 nM

###

measurementTarget: Cytochrome P450 1A1 (Homo sapiens)
experiment: Competitive inhibition of […] CYP1A1 expressed in supersomes coexpressing NADPH-CYP reductase using 7-Ethoxyresorufin as substrate measured every 5 mins for 30 mins in presence of NADPH by fluorescence assay
Format: ADME
experimentalConditions: read-out: Ki
assayMetric: pKi
pKi is a log-scale quantity: -log10 of the concentration expressed in molar.

Field request: pKi | item: "CCCCCc1cc(O)c2c(c1)OC(C)(C)c1ccc(C)cc1-2" 6.27

###

measurementTarget: Cytochrome P450 1B1 (Homo sapiens, UniProt Q16678)
experiment: Inhibition of […] CYP1B1 expressed in Escherichia coli DH5alpha coexpressing NADPH-P450 reductase using 7-ethoxyresorufin O-deethylation as substrate in presence of NADPH by UV absorbance analysis
assayMetric: IC50 (nM)
// units = nM; emit number, no label

What value of IC50 has been reported for the following molecule? "O=c1c2ccccc2nc2n1CCc1c-2[nH]c2ccc(O)cc12" 90

###

measurementTarget: Cytochrome P450 1A1 (Homo sapiens)
Sequence (P04798 whole entry): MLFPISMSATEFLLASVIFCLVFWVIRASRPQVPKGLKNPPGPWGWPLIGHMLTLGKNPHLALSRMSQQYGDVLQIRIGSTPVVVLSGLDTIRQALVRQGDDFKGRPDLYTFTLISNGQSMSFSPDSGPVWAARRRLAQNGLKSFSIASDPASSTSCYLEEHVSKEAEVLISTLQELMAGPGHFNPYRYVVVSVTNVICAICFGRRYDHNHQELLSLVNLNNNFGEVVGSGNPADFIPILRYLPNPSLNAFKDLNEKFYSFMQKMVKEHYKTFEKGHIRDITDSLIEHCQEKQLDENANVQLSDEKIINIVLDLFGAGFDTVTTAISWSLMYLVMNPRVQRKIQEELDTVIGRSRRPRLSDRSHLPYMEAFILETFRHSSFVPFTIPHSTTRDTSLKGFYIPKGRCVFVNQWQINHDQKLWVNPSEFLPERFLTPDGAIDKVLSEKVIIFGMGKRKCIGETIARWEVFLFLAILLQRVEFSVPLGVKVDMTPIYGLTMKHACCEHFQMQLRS
experiment: Competitive inhibition of […] CYP1A1 expressed in supersomes coexpressing NADPH-CYP reductase using 7-Ethoxyresorufin as substrate measured every 5 mins for 30 mins in presence of NADPH by fluorescence assay
Assay type: ADME
experimentalConditions: read-out: Ki(app)
assayMetric: Ki (nM)
# output: bare number, implied unit nM

Please look up its Ki: "C=C(C)[C@@H]1CCC(C)=C[C@H]1c1c(O)cc(CCCCC)cc1O" 150
